Give measured Ki for each item. Keep answers brief.
Test: Inhibition of codeine glucuronidation by human UGT enzymes from liver microsomes
Parameters: species or system Microsome
Give bare numbers, in µM.

CN(C)CCC=C1c2ccccc2CCc2ccccc21
130
CCCCC1C(=O)N(c2ccccc2)N(c2ccccc2)C1=O
1700
CN1C(=O)CN=C(c2ccccc2)c2cc(Cl)ccc21
180

Inquiry: Please give the measured Ki for this compound: O=C(N[C@H](CO)[C@H](O)c1ccc([N+](=O)[O-])cc1)C(Cl)Cl
Reply text: 270

====

Target: UGT2B7 (Homo sapiens)
Sequence (P16662 whole entry): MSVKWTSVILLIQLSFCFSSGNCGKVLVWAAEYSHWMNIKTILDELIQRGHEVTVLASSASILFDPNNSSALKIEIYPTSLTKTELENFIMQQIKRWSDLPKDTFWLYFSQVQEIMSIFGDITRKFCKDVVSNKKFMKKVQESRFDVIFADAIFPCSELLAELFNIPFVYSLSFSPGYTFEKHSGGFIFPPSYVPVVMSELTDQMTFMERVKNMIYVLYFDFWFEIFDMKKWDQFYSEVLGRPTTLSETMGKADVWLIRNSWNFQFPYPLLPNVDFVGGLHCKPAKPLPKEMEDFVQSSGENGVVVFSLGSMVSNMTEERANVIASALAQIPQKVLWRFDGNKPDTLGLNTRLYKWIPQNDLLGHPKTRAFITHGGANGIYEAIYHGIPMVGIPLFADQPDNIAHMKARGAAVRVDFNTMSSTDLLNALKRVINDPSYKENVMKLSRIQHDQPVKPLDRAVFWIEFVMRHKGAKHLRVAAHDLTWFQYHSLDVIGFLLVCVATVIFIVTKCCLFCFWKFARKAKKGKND
Test: Drug glucuronidation reaction catalyzed by human recombinant UGT2B7
Conditions: recombinant UGT2B7
assay endpoint: Km (µM)
Answers are plain numbers, in µM.

CC(C(=O)O)c1ccc(-c2ccccc2)c(F)c1 (stereo not drawn) [FLURBIPROFEN]
28

Dear reader, for each entry below, please note its Km.
1. O=C(O)Cc1ccccc1Nc1c(Cl)cccc1Cl [DICLOFENAC]
2. Cc1cn([C@H]2C[C@H](N=[N+]=[N-])[C@@H](CO)O2)c(=O)[nH]c1=O [ZIDOVUDINE]

Reply text:
1: 13; 2: 770
